meta.source: PubChem BioAssay (NCATS)

# Test system: SC27B
# MEASUREMENT PROTOCOL: qHTS profiling for inhibitors of Plasmodium falciparum proliferation (AID 504749); also: nearly all actives have a fitted effect of over 60% in size
# STATED CONDITIONS: P. falciparum in erythrocytes, SYBR Green DNA, 72 h; series mostly up to 12.8 µM
# Experimental: NIH National Institute of Allergy and Infectious Diseases [NIAID] NIH Chemical Genomics Center [NCGC] […] Because mature erythrocytes lack DNA, only Plasmodium-derived DNA is detected. NCGC Assay Protocol Summary: The SYBR Green viability assay was adapted from a method described previously (Plouffe et al., 2008). […] The following morning, fluorescence intensity at 485(14) nm excitation and 535(25) nm emission wavelengths was measured on an EnVision (Perkin Elmer) plate reader. […]
Inconclusive results are not listed. The source made the active and inactive calls. Calls follow the shape of the dose curve; as a rule, active = well fitted inhibition curve with a large enough effect; inconclusive = small, poorly fitted or top-dose-only effect; inactive = flat fitted curve, though single readings scatter.
MEASURED PARAMETER: outcome

COc1ccc([C@@H]2CC(=O)c3c(O)cc(O[C@H]4O[C@@H](CO[C@H]5O[C@@H](C)[C@@H](O)[C@@H](O)[C@@H]5O)[C@@H](O)[C@@H](O)[C@@H]4O)cc3O2)cc1O: inactive
CCC(=O)O[C@@]1(C(=O)SCF)[C@@H](C)C[C@H]2[C@@H]3C[C@@H](F)C4=CC(=O)C=C[C@@]4(C)[C@]3(F)[C@@H](O)C[C@]21C: inactive
CN[C@H]1[C@@H](O)[C@@H](NC)[C@@H]2O[C@@]3(O)C(=O)C[C@@H](C)O[C@H]3O[C@H]2[C@H]1O: inactive

---

# Tested on: ICS
# MEASUREMENT PROTOCOL: qHTS profiling for inhibitors of Plasmodium falciparum proliferation (AID 504749); also: nearly all actives have a fitted effect of over 60% in size; also: potency is read from the fitted curve at half-maximal effect
# STATED CONDITIONS: P. falciparum in erythrocytes, SYBR Green DNA, 72 h; series mostly up to 12.8 µM
Results filed as inconclusive are left out. Calls of active or inactive are those of the source. Calls follow the shape of the dose curve; as a rule, active = well fitted inhibition curve with a large enough effect; inconclusive = small, poorly fitted or top-dose-only effect; inactive = flat fitted curve, though single readings scatter.
MEASURED PARAMETER: Potency

Recorded results for 4 compounds are shown here.
C[C@]12CCC(=O)C=C1CCC1C2C(=O)C[C@]2(C)C1CC[C@]2(O)C(=O)CO (some centres not stated): inactive
CCC(=O)[C@@]1(C)[C@H](C)C[C@@H]2[C@@H]3CCC4=CC(=O)C=C[C@@]4(C)[C@H]3[C@H](O)C[C@]21C: 3.55 µM (active)
CC1(C)O[C@H]2C[C@@H]3[C@H]4CCC5=CC(=O)CC[C@@]5(C)[C@]4(F)[C@@H](O)C[C@@]3(C)[C@@]2(C(=O)CCl)O1: 0.891 µM (active)
CC(C)(C)NC(=O)[C@@H]1CC[C@@H]2[C@@H]3CC[C@@H]4NC(=O)C=C[C@@]4(C)[C@H]3CC[C@]21C: inactive

Provide reported Potency for each item, in the same order as listed.
1. C[C@H](CCC(=O)O)[C@H]1CC[C@@H]2[C@@H]3[C@@H](O)C[C@H]4C[C@@H](O)CC[C@@]4(C)[C@H]3CC[C@@]21C
2. COC1C=CO[C@@]2(C)Oc3c(C)c(O)c4c(O)c(c5c(nc6cc(C)ccn65)c4c3C2=O)NC(=O)/C(C)=C\C=CC(C)C(O)[C@@H](C)C(O)C(C)[C@@H](OC(C)=O)C1C (some centres not stated)
3. COc1ccc2cc1Oc1ccc(cc1)CC1c3c(cc4c(c3Oc3cc5c(cc3OC)CCN(C)C5C2)OCO4)CCN1C (configuration not stated)

inactive
5.01 µM (active)
2.82 µM (active)
